Source: patent US20250034266A1

Exercise: for every item that follows, state its recorded Binding Ratio (GFP + MFI)/(GFP - MFI).
- Target: T1, cynomolgus CCR8 (cynomolgus, UniProt G7NYJ2 1-355)
- T1 construct: whole, on cells; also called HEK293-Cynomolgus CCR8; ExpiCHO-S cynomolgus CCR8
- T1 sequence (G7NYJ2 entry or part of it): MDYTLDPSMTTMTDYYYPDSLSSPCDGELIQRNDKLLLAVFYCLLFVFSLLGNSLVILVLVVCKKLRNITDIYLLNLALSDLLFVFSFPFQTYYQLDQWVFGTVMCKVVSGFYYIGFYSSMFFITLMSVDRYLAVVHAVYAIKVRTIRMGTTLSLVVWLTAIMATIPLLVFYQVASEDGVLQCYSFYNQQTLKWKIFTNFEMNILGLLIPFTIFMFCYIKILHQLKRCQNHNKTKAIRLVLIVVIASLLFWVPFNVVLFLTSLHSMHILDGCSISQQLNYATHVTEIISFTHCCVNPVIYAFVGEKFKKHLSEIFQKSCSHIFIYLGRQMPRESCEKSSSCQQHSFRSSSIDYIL
- Assay details: FACS, hybridoma supernatant on cynomolgus CCR8 cells
Keep it simple and answer with nothing but the number.

Briefly, Binding Ratio (GFP + MFI)/(GFP - MFI) measured for 348E2D11 (antibody, V domains shown, Murine hybridoma antibody) VH: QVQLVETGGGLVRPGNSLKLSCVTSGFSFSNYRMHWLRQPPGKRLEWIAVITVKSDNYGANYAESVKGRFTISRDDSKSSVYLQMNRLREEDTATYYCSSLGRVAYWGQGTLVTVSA VL: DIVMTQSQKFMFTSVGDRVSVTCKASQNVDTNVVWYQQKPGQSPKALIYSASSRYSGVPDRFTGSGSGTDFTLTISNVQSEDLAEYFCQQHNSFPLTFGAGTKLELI : 74.2

Briefly, Binding Ratio (GFP + MFI)/(GFP - MFI) measured for 160D1E3 (antibody, V domains shown, Murine hybridoma antibody) VH: EVQLVESGGGLVQPKGSLKLSCAASGFTFNTYAMNWVRQAPGKGLEWVARIRSKSNYYATYYADSVKDRFTISRDDSQDMLYLQMNNLKTEDTAIYYCVRGRDYGSSYAMDYWGQGTSVTVSS VL: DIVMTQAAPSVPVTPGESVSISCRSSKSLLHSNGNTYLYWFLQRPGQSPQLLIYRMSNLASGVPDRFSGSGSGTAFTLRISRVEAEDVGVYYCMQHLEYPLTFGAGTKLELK : 92.2

Briefly, Binding Ratio (GFP + MFI)/(GFP - MFI) measured for 262C2G7 (antibody, V domains shown, Murine hybridoma antibody) VH: DVHLQESGPGLVKPSQSLSLTCSVTGYSITSGYYWNWIRQFPGNKLEWMGYISYDGSNNYNPSLKNRISITRDISKNQFFLKLNSVTTEDTATYYCARQIGLRRGAMDYWGQGTSVTVSS VL: DIQMTQSSSYLSVSLGGRVTITCKASDHINNWLAWYQQKPGNAPRLLISGSTSLKAGVASRFSGSGSGKDYTLTITSLQTEDVATYYCQQYWGIPFTFGGGTKLEIK : 99.8
